Could you please report measured inhibition for the items listed next?
Measured On: Cruzipain (Trypanosoma cruzi) (UniProt P25779)
Sequence (P25779 123-467 limits assumed): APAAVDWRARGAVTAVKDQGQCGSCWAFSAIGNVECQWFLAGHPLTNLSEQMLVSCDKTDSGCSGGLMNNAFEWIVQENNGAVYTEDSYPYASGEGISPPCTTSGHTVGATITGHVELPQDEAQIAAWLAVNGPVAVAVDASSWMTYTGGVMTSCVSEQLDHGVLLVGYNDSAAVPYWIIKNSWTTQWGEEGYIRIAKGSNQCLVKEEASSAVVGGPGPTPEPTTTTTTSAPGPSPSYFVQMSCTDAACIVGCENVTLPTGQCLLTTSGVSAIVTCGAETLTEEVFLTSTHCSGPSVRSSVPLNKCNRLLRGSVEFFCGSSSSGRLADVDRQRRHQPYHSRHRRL
Method Summary: Inhibition of Trypanosoma cruzi cruzaine expressed in Escherichia coli SG13009 using Z-FR-AMC as substrate at 100 uM after 5 mins
Give bare numbers, in %.

The examples below pair each entry with its known result.
mol=O=C(CSc1ccccc1)NCCc1nc2ccccc2[nH]1 unit_abbreviation=% numeric_result=66
mol=O=C(CCc1ccccc1Br)NCCN1CCCCC1 unit_abbreviation=% numeric_result=7
mol=O=C(COc1ccc2ccccc2c1)NCCc1nc2ccccc2o1 unit_abbreviation=% numeric_result=22
mol=Cc1cc(C)c(C#N)c(SCCNC(=O)COc2ccccc2C)n1 unit_abbreviation=% numeric_result=13
mol=Cc1ccccc1OCC(=O)NCCC(=O)NCc1ccccc1 unit_abbreviation=% numeric_result=8

Next up:
GET /values?readout=inhibition&item= `O=C(CCOc1ccccc1)NCCc1nc2ccccc2[nH]1`
25

---

In what follows, each item is paired with its pIC50 for Cruzipain (Trypanosoma cruzi, UniProt P25779).
Answers are plain numbers, as −log10 of the molar value.

The examples below pair each entry with its known result.
mol=CC(=O)n1c(CCNC(=O)COc2ccc(Br)cc2)nc2ccccc21 numeric_result=5.00
mol=O=C(CSc1ccccc1)NCCc1nc2ccccc2[nH]1 numeric_result=4.42

Next up:
GET /values?readout=pIC50&item= `Cc1ccccc1OCC(=O)NCCc1nc2ccccc2[nH]1`
5.39

---

Measured On: Cruzipain (Trypanosoma cruzi) (UniProt P25779)
Method Summary: Inhibition of Trypanosoma cruzi cruzaine expressed in Escherichia coli SG13009 using Z-FR-AMC as substrate at 100 uM after 5 mins
Measured Quantity: inhibition (%)
Give bare numbers, in %.

I would be grateful if you could provide inhibition for each of the following entries.
1. C=CCCn1c(CCNC(=O)COc2ccccc2Cl)nc2ccccc21
2. O=C(COc1ccc2ccccc2c1Br)NCCc1nc2ccccc2[nH]1
3. O=C(COc1ccccc1Cl)NCCc1nc2ccccc2[nH]1
4. O=C(COc1ccccc1Br)NCCc1nc2ccccc2[nH]1
5. O=C(COc1ccccc1)NCCc1nc2ccccc2[nH]1

1. 89
2. 92
3. 92
4. 89
5. 88
